Molecular target: hparp486 (Homo sapiens, UniProt P09874 1-486)
Sequence (P09874 1-486): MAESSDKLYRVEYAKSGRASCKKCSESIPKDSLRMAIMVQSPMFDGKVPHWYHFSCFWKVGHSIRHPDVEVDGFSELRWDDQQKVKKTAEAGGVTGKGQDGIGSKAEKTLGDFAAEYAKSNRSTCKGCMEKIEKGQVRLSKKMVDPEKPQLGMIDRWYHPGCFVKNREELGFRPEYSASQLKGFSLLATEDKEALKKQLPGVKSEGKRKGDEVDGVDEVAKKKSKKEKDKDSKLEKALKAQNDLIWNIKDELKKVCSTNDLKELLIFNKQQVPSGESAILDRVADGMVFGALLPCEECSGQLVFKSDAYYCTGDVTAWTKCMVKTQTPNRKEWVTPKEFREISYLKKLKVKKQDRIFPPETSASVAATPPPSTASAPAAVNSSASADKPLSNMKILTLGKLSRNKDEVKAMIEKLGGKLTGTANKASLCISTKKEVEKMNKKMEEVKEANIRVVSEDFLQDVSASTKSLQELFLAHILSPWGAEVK
Experiment: fluorescence quenching
READOUT: pKd
Please keep in mind that pKd is minus log10 of the molar concentration; only the number is needed.

stdin: What value of measured pKd is listed for 30Ext (pos. B) (dsDNA) DNA 1: ATCAGATAGCATCTGTGCGGCCGCTTAGGGTTAGGG DNA 2: CCCTAAGCGGCCGCACAGATGCTATCTGAT ?
stdout: 6.89
